RBC lysis assay IC50 (P. aeruginosa strain 57/66(O6)) values for the binders below.
# assay.target: native PcrV on live Pseudomonas aeruginosa (strains O6-57/66, O11-PA103, O1-52/66, O16-177/81) (Pseudomonas aeruginosa)
# protocol.notes: cell-based or functional assay
Value expressed in µg/mL; do not type the unit.

binder	observed
3B12 (antibody, V domains shown, also called optimized anti-PcrV mAb clone 3B12) VH: EVQLLESGGGLVQPGGSLRLSCTASGFTFSSNHMSWVRQAPGKGLDWVSGISESGGSTNYADSVKGRFSTSRDNSKSTLYLDMNSLRAEDTAIYYCAKGRFSDEYGHFFRAVYGMDVWGQGTAVTVSS VL: DIQLTQSPSSLSASVGDRVTITCRASQGISSYLAWYQQKPGKAPKLLIYAASTLQSGVPSRFSGSGSGTDFTLTISSLQPEDFATYYCQQLSSYPLTFGGGTKVEIK	0.16

So for 3H10 (antibody, V domains shown, also called optimized anti-PcrV mAb clone 3H10) VH: EVQLLESGGGLVQPGGSLRLSCTASGFTFSDYPMSWVRQAPGKGLDWVSGISESGGSTNDADSVKGRFSTSRDNSKSTLYLDMNSLRAEDTAIYYCAKGRFSDYSQHFFRAVYGMDVWGQGTAVTVSS VL: DIQLTQSPSSLSASVGDRVTITCRASQGISSYLAWYQQKPGKAPKLLIYAASTLQSGVPSRFSGSGSGTDFTLTISSLQPEDFATYYCQQLNSYPLTFGGGTKVEIK , the logged RBC lysis assay IC50 (P. aeruginosa strain 57/66(O6)) turned out to be 0.16
